Catalogue of self-splicing fitness (ln) values
- assay.name: self-splicing fitness, log relative to wild type (ln ratio); higher = more splicing; Tetrahymena group I intron in knt gene, E. coli kanamycin selection, DiMSum; sequences stand for … in CUCUCU…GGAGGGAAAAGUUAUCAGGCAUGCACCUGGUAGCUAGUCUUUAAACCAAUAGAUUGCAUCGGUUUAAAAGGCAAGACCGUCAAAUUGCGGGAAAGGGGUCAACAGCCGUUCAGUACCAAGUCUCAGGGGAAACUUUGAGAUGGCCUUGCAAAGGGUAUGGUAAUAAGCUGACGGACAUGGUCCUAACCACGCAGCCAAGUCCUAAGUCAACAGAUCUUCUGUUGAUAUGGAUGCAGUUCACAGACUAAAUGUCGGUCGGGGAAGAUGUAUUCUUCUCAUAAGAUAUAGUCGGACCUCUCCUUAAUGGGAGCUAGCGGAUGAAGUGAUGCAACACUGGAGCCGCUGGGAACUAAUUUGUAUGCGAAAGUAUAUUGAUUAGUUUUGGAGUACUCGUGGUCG;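 note: selection with 25 µg/mL kanamycin versus none on LB agar overnight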
- condition.set: 30 °C
API note: the answer field is a bare number with no unit suffix.

Here is how some sequences turned out for self-splicing fitness (ln).
- sequence.entry: "GAACAGCAAUAUUACGAGCA"
  readout.value: -1.01
- sequence.entry: "AACUAGCAAUAUUACGCAGG"
  readout.value: -2.99
- sequence.entry: "UAGCAGCAAUAUUACGGAAG"
  readout.value: -3.04

Could you now look at the following sequence, please?
Suppose we examine the sequence `UAAUAGCAAUAUUACGGAAG` ; what self-splicing fitness (ln) value has been reported?
-3.02

----------
- assay.name: self-splicing fitness, log relative to wild type (ln ratio); higher = more splicing; Tetrahymena group I intron in knt gene, E. coli kanamycin selection, DiMSum; sequences stand for … in CUCUCU…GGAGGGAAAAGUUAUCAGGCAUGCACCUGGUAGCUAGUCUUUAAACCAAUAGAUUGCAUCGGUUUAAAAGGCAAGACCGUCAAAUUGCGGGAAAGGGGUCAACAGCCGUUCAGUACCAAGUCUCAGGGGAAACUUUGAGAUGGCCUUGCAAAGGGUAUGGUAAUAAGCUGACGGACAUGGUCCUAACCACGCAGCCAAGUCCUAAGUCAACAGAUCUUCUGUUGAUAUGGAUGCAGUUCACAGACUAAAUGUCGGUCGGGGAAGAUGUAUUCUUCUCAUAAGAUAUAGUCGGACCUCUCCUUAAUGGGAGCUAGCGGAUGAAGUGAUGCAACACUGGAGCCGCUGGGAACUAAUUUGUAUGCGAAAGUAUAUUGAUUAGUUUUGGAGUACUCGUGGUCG
- condition.set: 30 °C
reported.endpoint: self-splicing fitness (ln)
API note: the answer field is a bare number with no unit suffix.

Here is how some sequences turned out for self-splicing fitness (ln).
- sequence.entry: "CUCUAGCAAUAUUACGCAGA"
  readout.value: -4.08
- sequence.entry: "GGAAAGCAAUAUUACGUCGG"
  readout.value: -3.51
- sequence.entry: "UAUUAGCAAUAUUACGUGUC"
  readout.value: -3.34

Suppose we examine the sequence `GCCGAGCAAUAUUACGAAUC` ; what self-splicing fitness (ln) value has been reported?
-1.68

Suppose we examine the sequence `UGAAAGCAAUAUUACGUGGA` ; what self-splicing fitness (ln) value has been reported?
-2.89
